# experimental-protocol: NCI Yeast Anticancer Drug Screen. Data for the mlh1 rad18 strain (AID 175)
# experimental-parameters: S. cerevisiae mlh1 rad18 strain growth inhibition; at 50.0 µM (retest, dose inferred, filed as 5.0); stronger effect = higher value
The panel holds about 79,000 compounds, 15% with a hit somewhere; the sample as a whole holds those more often.
Please use the following growth inhibition ranges when assigning a class: low bracket (below 60%), middle bracket (60% to below 90%), high bracket (90% or more)

Example entries and their recorded answers appear below.
# compound, assigned-label
rows = [
    ("Cc1cc(O)c(C(C)C)cc1C1(c2cc(C(C)C)c(O)cc2C)OC(=O)c2ccccc21", "high bracket"),
    ("COc1cccc2c1C(=O)c1c(O)c3c(c(O)c1C2=O)CC(O)(C(O)CO)CC3OC1CC(N2CCOCC2)C(O)C(C)O1 (stereo not drawn)", "high bracket"),
    ("Cc1cccc(/C=N/NC(=S)N2CCCC2)n1", "high bracket"),
    ("CCCCN(CCCC)CCC(O)c1cc2c(Cl)cc(Cl)cc2c2cc(C(F)(F)F)ccc12 (stereo not drawn)", "high bracket"),
    ("NCCNCCNc1ccc(NCCNCCN)c2c1C(=O)c1c(O)ccc(O)c1C2=O", "low bracket"),
]

Band assignment needed for "Cc1ccc(Cl)cc1NC(=O)OCCN(C)C(=O)Nc1cc(Cl)ccc1C" please.
high bracket

###

Listing of recorded growth inhibition by entry.
# experimental-protocol: NCI Yeast Anticancer Drug Screen. Data for the wt2 strain (AID 169);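 further: 0% = growth of vehicle-treated yeast cultures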
# experimental-parameters: S. cerevisiae wt2 strain growth inhibition; at 33.0 µM; stronger effect = higher value
This is part of a sample that, as a whole, favours compounds with a hit. Of some 79,000 tested, about 15% had one in any assay.
Reply with just the number (in %).

# smiles-representation, property-measured, assay-value
data = [
    ("NC(N)=NS(=O)(=O)c1ccc(Nc2c3ccccc3nc3c(C(=O)NCCO)cccc23)cc1", "growth inhibition", 0),
]

So what does the record say about growth inhibition for "CNC(=O)OCc1c(COC(=O)NC)c2n(c1C)-c1ccc(OC)cc1CCC2" ?
66

Any idea what its growth inhibition is? The compound is "CCCCc1nnc(NS(=O)(=O)c2ccc(C)cc2)s1"
20

For the compound shown here, "Cc1c2ccnc(C(=O)NCCN(C)C)c2cc2c3cc(O)ccc3n(C)c12" , give the reported growth inhibition.
20

###

# experimental-protocol: NCI Yeast Anticancer Drug Screen. Data for the mec2-1 strain (AID 157)
# experimental-parameters: S. cerevisiae mec2-1 strain, at 100.0 µM
Compounds without any hit were thinned out: in the full panel of roughly 79,000, 15% have a hit. Calls of active or inactive are those of the source. Rule as the data show it: active = growth inhibition above about 70%; inactive = the rest.
Result category, one only: active, inactive

See these solved cases before continuing.
# compound, assigned-label
records = [
    ("O=C1C=C(Cl)C(=O)N1c1cccc(Cl)c1", "active"),
    ("Cc1nc(Nc2ccccc2[N+](=O)[O-])sc1C(=O)CC(=O)C(=O)Nc1c(C(C)C)cccc1C(C)C", "inactive"),
]

Next up:
What outcome does the record of this test show for COc1ccc(C(NCCNC(c2ccc(OC)c(OC)c2)c2cc3c(cc2O)OCO3)c2cc3c(cc2O)OCO3)cc1OC (stereo not drawn) ?
active

###

# experimental-protocol: NCI Yeast Anticancer Drug Screen. Data for the wt1 strain (AID 149);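 further: 0% = growth of vehicle-treated wt1 cultures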
# experimental-parameters: S. cerevisiae wt1 strain (SPY 50644) growth inhibition; at 33.0 µM; stronger effect = higher value
About 79,000 compounds went through this panel and 15% of them were active in at least one assay; those are over-represented in the sample as a whole.
property-measured: growth inhibition (%)
Give just the numeric value; % need not be written.

Before answering, review these 2 worked examples.
# smiles-representation, property-measured, assay-value
rows = [
    ("CCOC(=O)c1[nH]cc(C)c1-c1cccn1-c1ccc(Cl)cc1[N+](=O)[O-]", "growth inhibition", 12),
    ("COc1ccc(C(=O)c2ccccc2C(=O)c2ccccc2OC)cc1", "growth inhibition", -7),
]

// moving on: another record for growth inhibition
Which growth inhibition value is on record for "Cc1nc(Nc2ccccc2[N+](=O)[O-])sc1C(=O)CC(=O)C(=O)Nc1c(C(C)C)cccc1C(C)C" ?
5
